target or system: T1, human glucose-dependent insulinotropic polypeptide receptor (GIPR), expressed on CHO-K1 cells (human, UniProt P48546 22-466)
T1 sequence (looked up): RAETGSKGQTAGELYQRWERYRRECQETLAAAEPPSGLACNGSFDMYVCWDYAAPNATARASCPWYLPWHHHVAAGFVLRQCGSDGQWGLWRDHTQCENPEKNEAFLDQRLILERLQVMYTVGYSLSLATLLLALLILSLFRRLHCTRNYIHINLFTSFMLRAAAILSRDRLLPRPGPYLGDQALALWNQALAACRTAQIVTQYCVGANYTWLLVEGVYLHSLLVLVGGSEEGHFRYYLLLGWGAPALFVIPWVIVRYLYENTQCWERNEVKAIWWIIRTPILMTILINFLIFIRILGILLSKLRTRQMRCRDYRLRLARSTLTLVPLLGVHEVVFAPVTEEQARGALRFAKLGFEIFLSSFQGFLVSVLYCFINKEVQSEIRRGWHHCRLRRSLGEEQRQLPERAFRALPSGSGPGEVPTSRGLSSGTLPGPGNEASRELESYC
method summary: cell-based or functional assay
Numbered stars: 1 amine (or outer) side, 2 acyl side, 3 side chain; on linkers, the order of the positions; unused ones are H or OH. Square brackets hold non-standard residues; d marks the D form. Primed or numbered codes have the meaning given here. Side chains are listed from the residue outwards. Ends that are not written are not given here. * marks the point of attachment. C18 = C18 fatty acid (C16-C22 fatty acids conjugated via γGlu/8-amino-3,6-dioxaoctanoic acid spacers); C18″ = C18 fatty acid moiety (of 2OEG-γGlu-C18, K*); γGlu = O=C(O)[C@H](CCC(=O)[*:2])N[*:1]; αMeR = C[C@](N)(CCCNC(=N)N)C(=O)O; AEEA = NCCOCCOCC(=O)O; Aib = CC(C)(N)C(=O)O
# maps each entry to its Relative % to native ligand
Give the quantity in %, number only.

Please review the entries below; each comes with its answer.
Y[Aib]QGTFTSDYSK([AEEA-AEEA-γGlu-C18″])LLDYMMQ[αMeR]DFVQWLLEGGPSSGAPPPS-NH2 [SEQ ID NO. 101] : 472
Y[Aib]QGTFTSDYSK([AEEA-AEEA-γGlu-C18])LLDYMMQHDFVQWLLEGGPSSGAPPPS-NH2 [SEQ ID NO. 99] : 1130
Y[Aib]QGTFTSDYSK([AEEA-AEEA-γGlu-C18″])LLDYMMQRDFVQWLLEGGPSSGAPPPS-NH2 [Peptide No. 5-3D] : 230

Next binder, Relative % to native ligand to be filled in.
Challenge: Give the measured Relative % to native ligand of Y[Aib]QGTFTSDYSK([AEEA-AEEA-γGlu-C18″])LLDYMMQQDFVQWLLEGGPSSGAPPPS-NH2 [SEQ ID NO. 100] .
Response given: 55
